Tested on: UACC-62 melanoma
MEASUREMENT DESCRIPTION: NCI-60 one-dose screen, 48 h (100 = growth as untreated, 0 = no growth, -100 = all killed)
ASSAY SETUP: 10 µM unless noted
The panel holds about 83,000 compounds, 20% with a hit somewhere; the sample as a whole holds those more often.
PROPERTY NAME: growth (%)

| SAMPLE SMILES | REPORTED VALUE |
| --- | --- |
| COc1ccc(-c2cc(-c3cccnc3)nc3sc4c(=O)[nH]c(-c5ccc(Cl)cc5)nc4c23)cc1OC | 90.5 |
| Cc1ccc(Nc2cc(N)nc(N)n2)cc1Cl | 90.8 |
| O=C1Nc2ccc(C(=O)O)cc2/C1=N/c1nnc(Sc2ccccc2)s1 | 99 |
| O=C(Nc1ccc(OS(=O)(=O)c2ccc(F)cc2)cc1)C1CCCCCC1 | 85.5 |
| CN1C(=O)/C(=C\c2nc([P+](c3ccccc3)(c3ccccc3)c3ccccc3)c(N3CCOCC3)o2)SC1=S | -3.31 |
